Molecular target: PDGFRB (Homo sapiens, UniProt P09619)
Construct: Kinases are expressed as either kinase domains or full length constructs; made in house
Sequence (P09619 33-1106, species assumed): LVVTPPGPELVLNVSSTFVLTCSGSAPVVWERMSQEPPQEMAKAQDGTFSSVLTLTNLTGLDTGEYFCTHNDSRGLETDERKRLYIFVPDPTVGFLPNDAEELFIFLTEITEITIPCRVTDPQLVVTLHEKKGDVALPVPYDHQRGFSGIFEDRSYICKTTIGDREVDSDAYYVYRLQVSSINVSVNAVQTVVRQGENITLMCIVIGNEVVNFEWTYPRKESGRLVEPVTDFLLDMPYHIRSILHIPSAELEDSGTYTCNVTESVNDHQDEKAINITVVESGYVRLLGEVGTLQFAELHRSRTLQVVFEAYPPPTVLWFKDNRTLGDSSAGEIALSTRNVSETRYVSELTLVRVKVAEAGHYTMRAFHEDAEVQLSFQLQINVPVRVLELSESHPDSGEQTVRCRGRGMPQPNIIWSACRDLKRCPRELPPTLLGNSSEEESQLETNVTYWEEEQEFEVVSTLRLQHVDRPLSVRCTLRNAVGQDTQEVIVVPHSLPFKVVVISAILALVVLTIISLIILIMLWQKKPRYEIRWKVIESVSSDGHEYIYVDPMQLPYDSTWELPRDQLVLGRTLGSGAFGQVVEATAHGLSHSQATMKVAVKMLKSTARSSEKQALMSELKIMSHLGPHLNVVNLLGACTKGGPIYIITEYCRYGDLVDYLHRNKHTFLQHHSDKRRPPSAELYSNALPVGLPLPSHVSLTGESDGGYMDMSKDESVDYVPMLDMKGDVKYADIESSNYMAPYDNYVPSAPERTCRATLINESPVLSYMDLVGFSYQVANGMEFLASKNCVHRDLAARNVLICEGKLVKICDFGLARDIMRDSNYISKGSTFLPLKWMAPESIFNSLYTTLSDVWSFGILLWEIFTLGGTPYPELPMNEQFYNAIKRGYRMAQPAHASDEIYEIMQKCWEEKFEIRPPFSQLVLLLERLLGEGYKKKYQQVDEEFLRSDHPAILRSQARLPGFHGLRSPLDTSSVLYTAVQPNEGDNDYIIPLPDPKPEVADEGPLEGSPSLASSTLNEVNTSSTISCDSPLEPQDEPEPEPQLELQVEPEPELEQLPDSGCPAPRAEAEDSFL
Experiment: Kinase inhibition assay (33P transfer), PDGFRB
Assay type: biochemical
Details: read-out: PDGFRB-1

molecule: COc1cc(Nc2ncnc(-n3c(N)nc4ccccc43)n2)cc(OC)c1OCCN1CCOCC1 [Compound 445]
IC50: < 0.812 µM
--
molecule: COc1cc(Nc2ncnc(-n3cc(CC(N)=O)c4ccccc43)n2)cc(OC)c1OC [Compound 353]
IC50: < 0.921 µM
--
molecule: COc1cc(Nc2ncnc(Nc3ccccc3)n2)cc(OC)c1OC [Compound 91]
IC50: < 1.13 µM
--
molecule: COc1cc(Nc2ncnc(-n3c(N)nc4ccccc43)n2)ccc1OCCn1ccnn1 [Compound 324]
IC50: > 10.1 µM

Reference for the values: patent US7074789B2
